The reported measurements were obtained from patent US6455578B1.

# test method notes: Partition test between n-octanol and aqueous solution pH 7.4
# Type: physicochemical
# assay conditions: n-octanol / aqueous 20 mM tris(hydroxymethyl)aminomethane pH 7.4, room temperature, spectrophotometry; ligand 10^-4 M, complex 2x10^-4 M; read-out: partition coefficient (concentration in n-octanol / concentration in aqueous solution) (converted)
measured metric: logD
One number for each entry.

Q) Look at this compound and give its reported logD. Cc1oc2ccccc2c(=O)c1O [3-hydroxy-2-methyl-4H-1-benzopyran-4-one]
A) 1.38
